# IC50 (ComD1 EC50/IC50; β-gal reporter) listing for each entry below
# TARGET ENTITY: ComD1 receptor (Streptococcus pneumoniae)
# TEST DETAILS: cell-based or functional assay
Bridge positions count the residues as written; N and C are the ends. Square brackets hold non-standard residues; d marks the D form. Ends that are not written are not given here. Dap = NC[C@H](N)C(=O)O
Value expressed in nM; do not type the unit.

BINDER | IC50 (ComD1 EC50/IC50; β-gal reporter), nM
AMRLSKFFRDFILQRKK [CSP1-E1A] | 85.7
AMRLSXFFREFILQRKK (Dab at position 6; side chain-to-side chain lactam between Dab6 and Glu10) [CSP1-E1A-cyc(Dab6E10)] | 173
AMRLS[Dap]FFREFILQR (lactam 6-10) [CSP1-E1A-des-K16K17-cyc(Dap6E10)] | 7.57

Moving on to the next binder.
Any idea what IC50 (ComD1 EC50/IC50; β-gal reporter) was measured for AMRLS[Dap]FFREFILQRKK (lactam 6-10) [CSP1-E1A-cyc(Dap6E10)] ? 75.8
